Origin of values: ChEMBL document CHEMBL3045726

What Activity was measured for each of the following?
# Tested on: Podosphaera fuliginea
# assay_explanation: Fungicidal activity against Podosphaera fuliginea in cucumber assessed as control of cucumber powdery mildew at 62.5 ppm measured after 7 days of inoculation
# Format: functional
One number for each entry, in %.

CCCCCc1c(C)nc(-n2nc(C)cc2C)nc1O	100

// each compound listed below needs its Activity
1. CCCCc1c(C)nc(NCC)[nH]c1=O
2. CCCCc1c(C)nc(N(C)C)nc1O
3. CCCCc1c(C)nc(-n2nc(C)cc2C)nc1O
4. Cc1cc(C)n(-c2nc(C)c(CC(C)C)c(O)n2)n1
5. CCCCCCc1c(C)nc(-n2nc(C)cc2C)nc1O

100
100
100
100
99.4

###

# Tested on: Pyricularia oryzae
# assay_explanation: Fungicidal activity against Magnaporthe oryzae in rice seedlings assessed as control of rice blast at 500 ppm by preventive foliar treatment
# Format: functional
I'd be grateful if you could share measured Activity for these entries.
Numbers only, in %.

Cc1cc(C)n(-c2ccc3ccccc3n2)n1	31
Cc1cc(C)n(-c2nc(O)c3c(n2)CCCC3)n1	0

Give Activity for each of the items listed below.
1. Cc1cc(C)nc(-n2nc3c(c2C)CCCC3)n1
2. Cc1cc(C)n(C2=NS(=O)(=O)c3ccccc32)n1
3. Cc1cc(C)nc(-n2nc(C)c(CC(C)C)c2C)n1
4. Cc1cc(C)nc(-n2ccnc2)n1
5. Cc1cc(C)nc(-n2nc(C)nc2C)n1
6. Cc1cc(C)n(-c2nc(C)c(CC(C)C)c(O)n2)n1

1: 84; 2: 31; 3: 90; 4: 51; 5: 81; 6: 93

###

# Tested on: Pyricularia oryzae
# assay_explanation: Fungicidal activity against Magnaporthe oryzae in rice seedlings assessed as control of rice blast at 500 ppm by preventive foliar treatment
# Assay type: functional
Exercise: for every item that follows, state its recorded Activity.
Numbers only, in %.

Use the examples below as a reference point.
Cc1cc(C)n(-c2nc(C)c(C)c(C)n2)n1	65
C=CCc1c(C)nn(-c2nc(C)cc(C)n2)c1C	85
Cc1cc(C)nc(-n2nc(C)cc2-c2ccccc2)n1	67

Query molecule follows.
Give Activity for the following molecule: CCCCc1c(C)nc(-n2nc(C)cc2C)nc1O
48

###

# Tested on: Pyricularia oryzae
# assay_explanation: Fungicidal activity against Magnaporthe oryzae in rice seedlings assessed as control of rice blast at 500 ppm by preventive foliar treatment
# Assay type: functional
measured_endpoint: Activity (%)
Answers are plain numbers, in %.

Observe how each entry below is paired with its result.
Cc1cc(C)nc(-n2cc(C)nc2C)n1	59
Cc1cc(C)n(-c2nc3ccccc3s2)n1	40

The following compounds each have a reported value; give each one's Activity.
1. Cc1cc(C)nc(-n2nc(C)cc2C(F)(F)F)n1
2. Cc1cc(C)n(-c2ncc3ccccc3n2)n1
3. COc1cc(C)nc(-n2nc(C)cc2C)n1

[53, 84, 81]

Please state Activity for every compound in the list that follows.
1. Cc1nc(-n2nc(C)c(Br)c2C)nc(O)c1Br
2. Cc1nc(-n2nc(C)c(C)c2C)nc(C)c1C
3. CCCc1c(C)nn(-c2nc(C)cc(C)n2)c1C
4. Cc1cc(C)n(-c2ccc(O)nn2)n1
5. Cc1cc(C)n(-c2nc(C)c3ccccc3n2)n1
6. Cc1cc(C)nc(-n2nc(C)c(Br)c2C)n1
7. CCc1c(C)nn(-c2nc(C)cc(C)n2)c1C

[40, 81, 90, 29, 71, 65, 100]

I have 5 compounds here; please give me Activity for each one.
1. Cc1cc(C)nc(-n2ncc3ccccc32)n1
2. Cc1ccnc(-n2nc(C)c(C)c2C)n1
3. Cc1cc(C)nc(-n2nc(C)c(Cl)c2C)n1
4. CCCc1cc(CCC)n(-c2nc(C)cc(C)n2)n1
5. Cc1cc(C)n(-c2ncncn2)n1

1. 31
2. 63
3. 29
4. 40
5. 59

Each of the following entries comes with a recorded value; kindly state Activity for each.
1. Cc1cc(C)nc(-n2nc(C(F)(F)F)cc2-c2ccccc2)n1
2. Cc1cc(C)n(-c2cc(C)c3ccccc3n2)n1
3. CCCCCc1c(C)nc(-n2nc(C)cc2C)nc1O
4. Cc1cc(C)nc(-n2ccc(C)n2)n1

[74, 81, 81, 69]

I need Activity for every entry listed below, if you could help.
1. Cc1cc(C)n(-c2ncccn2)n1
2. CCNc1nc(NCC)nc(-n2nc(C)cc2C)n1
3. Cc1cc(C)n(-c2nc(Cl)nc(Cl)n2)n1
4. CCc1cc(C)n(-c2nccc(C)n2)n1

78
100
100
84

I would be grateful if you could provide Activity for each of the following entries.
1. Cc1cc(C)n(-c2nc(O)c3c(n2)CCC3)n1
2. Cc1cc(C)nc(-n2nc(C(C)C)cc2C(C)C)n1
3. Cc1cc(C)nc(-n2cccn2)n1
4. Cc1ccnc(-n2nc(C)cc2C)n1
5. CCc1cc(C)n(-c2nc(C)cc(C)n2)n1
6. CC(=O)c1c(C)nn(-c2nc(C)cc(C)n2)c1C
7. CCOC(=O)c1cc(C)nn1-c1nc(C)cc(C)n1

[13, 31, 41, 78, 31, 40, 0]

For each of the items listed, what is its Activity?
1. Cc1cc(C)n(-c2nc(C)c(Cl)c(C)n2)n1
2. CCc1cc(CC)n(-c2ncccn2)n1
3. Cc1cc(C)n(-c2nc3ccccc3c(=O)[nH]2)n1
4. Cc1cc(C)nc(-n2ccnc2C)n1

[94, 90, 40, 59]

I have 6 compounds here; please give me Activity for each one.
1. CCc1cc(CC)n(-c2nccc(C)n2)n1
2. Cc1cc(C)nc(-n2nc(C)cc2C)n1
3. Cc1cc(C)nc(-n2[nH]c(C)cc2=O)n1
4. Cc1cc(C)nc(-n2cncn2)n1
5. COc1cc(C)nn1-c1nc(C)cc(C)n1
6. CCOC(=O)c1c(C)nn(-c2nc(C)cc(C)n2)c1C

59
99
31
31
40
69
